As shown below, each of these molecules has a reported Semi-quantitative analysis of proteins binding to different plaque particles: Chl small value.
System: Low density cholesterol (Chl small) plaque particles
Assay: Mass spectroscopy proteomics, semi-quantitative binding affinity of serum proteins (plaqueproteome, Table 2)
Design: species or system human
Conditions: higher number = stronger affinity
property_measured: Semi-quantitative analysis of proteins binding to different plaque particles: Chl small

[
  {
    "molecule": "Serum amyloid A-4 protein (protein) ESWRSFFKEALQGVGDMGRAYWDIMISNHQNSNRYLYARGNYDAAQRGPGGVWAAKLISRSRVYLQGLIDCYLFGNSSTVLEDSKSNEKAEEWGRSGKDPDRFRPDGLPKKY",
    "reported_value": 1
  },
  {
    "molecule": "Ig lambda chain V-III region (protein) SELTQDPAVSVALGQTVRITCQGDSLRSYYASWYQQKPGQAPVLVIYGKNNRPSGIPDRFSGSSSGNTASLTITGAQAEDEADYYCNSRDSS",
    "reported_value": 1
  }
]
